tested on: HCC cell lines; test: HCC cell proliferation in vitro; type: cell-based; details: HCC cell lines with high levels of MYC expression
PARAMETER_MEASURED: IC50 (µM)
Response body: numeric value in µM, unit text excluded.

Request: // fetch IC50 given entry CN1C/C=C/CCOc2cccc(c2)-c2ccnc(n2)Nc2cccc(c2)C1 [TG02]
Response: 0.084

---

test system: patient-derived GBM stem cell lines; assay: GBM stem cell proliferation, panel of 26 patient-derived lines; type: cell-based; conditions: sixteen of 26 patient-derived GBM stem cell lines
PARAMETER_MEASURED: IC50

Request: // fetch IC50 given entry CN1C/C=C/CCOc2cccc(c2)-c2ccnc(n2)Nc2cccc(c2)C1 [TG02]
Response: < 250 nM
